Assay: recombinant UMI read abundance after kanamycin selection (control-corrected) (log10(CPM+1)); higher = more efficient recombination; extreme values may be limits of the assay; sequences stand for … in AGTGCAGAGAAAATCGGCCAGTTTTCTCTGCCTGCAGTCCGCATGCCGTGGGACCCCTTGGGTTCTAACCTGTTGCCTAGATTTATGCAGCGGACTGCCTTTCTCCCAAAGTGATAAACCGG…AGGTTGGTTTCACT; site = the 11-nt donor
// recombinant UMI read abundance (log10) lookup, one value per entry
ASSAY METRIC: recombinant UMI read abundance (log10)

• TCACTATCATGGACCGGTTTTCCCGGTAATCCGTATTTGCA (site ACAGTATCTTG) = 0
• GATGACACATGGACCGGTTTTCCCGGTAATCCGTATTTGTC (site GATGACACTGA) = 1.18
• ATTGTGACATGGACCGGTTTTCCCGGTAATCCGTATTTGGT (site ATTGTGACTAC) = 0.925
• GGTGGAACATGGACCGGTTTTCCCGGTAATCCGTATTTGTT (site GGTGGAACTAA) = 0.746
• TCGATAGCATGGACCGGTTTTCCCGGTAATCCGTATTTGGG (site TCGATAGCTCC) = 0.00329
• CGCAGTACATGGACCGGTTTTCCCGGTAATCCGTATTTGCG (site CGCAGTACTCG) = 0.962
• CCCGGACCATGGACCGGTTTTCCCGGTAATCCGTATTTGCA (site CCCGGGCCTTG) = 0
• CCCATATCATGGACCGGTTTTCCCGGTAATCCGTATTTGAC (site CCCATATCTGG) = 0
• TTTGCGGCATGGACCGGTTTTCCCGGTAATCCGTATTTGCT (site TTTCCGGCTAG) = 0.0114
• AATATGACATGGACCGGTTTTCCCGGTAATCCGTATTTGTG (site AATATGACTCA) = 0.774
• CACCCGTCATGGACCGGTTTTCCCGGTAATCCGTATTTGTT (site CACCCGTCTAA) = 2.2
• CAAGCCCCATGGACCGGTTTTCCCGGTAATCCGTATTTGTG (site CAAGCACCTCA) = 0.0304
• CAAGCGTCATGGACCGGTTTTCCCGGTAATCCGTATTTGTG (site CAAGCGTCTCA) = 2.6
• GAGAAGCCATGGACCGGTTTTCCCGGTAATCCGTATTTGGG (site GGGAAGCCTCC) = 0
• CGAGCAGCATGGACCGGTTTTCCCGGTAATCCGTATTTGCT (site CGATCATCTAG) = 0
• ATTAGGCCATGGACCGGTTTTCCCGGTAATCCGTATTTGAC (site ATGAGGCCTGT) = 0
• CGTGGACCATGGACCGGTTTTCCCGGTAATCCGTATTTGGG (site CGTGGACCTCC) = 0.0154
• GTCTATTCATGGACCGGTTTTCCCGGTAATCCGTATTTGAC (site GTCTATTCTGT) = 2.09
• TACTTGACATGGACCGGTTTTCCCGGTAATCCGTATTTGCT (site TATTTGACTAG) = 0.0574
• TGCTCAACATGGACCGGTTTTCCCGGTAATCCGTATTTGGC (site TGCTCAACTGC) = 0
• CAGAATCCATGGACCGGTTTTCCCGGTAATCCGTATTTGAT (site CAGAATCCTAT) = 1.84
• ATACTAACATGGACCGGTTTTCCCGGTAATCCGTATTTGGA (site TTACTAACTTC) = 2.05
• CTAGTAGCATGGACCGGTTTTCCCGGTAATCCGTATTTGAA (site CTAGTAGCTTT) = 2.15
• TGATTATCATGGACCGGTTTTCCCGGTAATCCGTATTTGAA (site TGATTATCTTT) = 1.32
• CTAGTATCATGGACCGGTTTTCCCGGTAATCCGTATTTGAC (site CTAGTTGCTGT) = 0
• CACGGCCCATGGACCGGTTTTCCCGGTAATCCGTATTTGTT (site CACGGCCCTAG) = 1.14
• GGCGATCCATGGACCGGTTTTCCCGGTAATCCGTATTTGAA (site GGCAATCCTTT) = 0.0192
• CGGAATCCATGGACCGGTTTTCCCGGTAATCCGTATTTGAT (site CGGAATCCTAT) = 0.646
• TGGCGGGCATGGACCGGTTTTCCCGGTAATCCGTATTTGTT (site TGGCGGGCTAA) = 0.701
• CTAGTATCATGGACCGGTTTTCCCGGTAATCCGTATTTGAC (site CTAGGATCTAT) = 0.00421
• AATGTATCATGGACCGGTTTTCCCGGTAATCCGTATTTGAC (site AATGTTTCTGT) = 0
• CATTGCTCATGGACCGGTTTTCCCGGTAATCCGTATTTGAA (site CATTGCTCTTT) = 1.05
• GTGTAGGCATGGACCGGTTTTCCCGGTAATCCGTATTTGTG (site GTGTAGGCTCA) = 1.75
• CGGGAACCATGGACCGGTTTTCCCGGTAATCCGTATTTGGT (site CGGGAACCTAG) = 0
• TCACTAACATGGACCGGTTTTCCCGGTAATCCGTATTTGGA (site TCACTAACTTC) = 0.957
• TGTTCCACATGGACCGGTTTTCCCGGTAATCCGTATTTGTA (site TGTTCCGCTTA) = 0.0123

* * *

// recombinant UMI read abundance (log10) lookup, one value per entry
Assay: recombinant UMI read abundance after kanamycin selection (control-corrected) (log10(CPM+1)); higher = more efficient recombination; extreme values may be limits of the assay; sequences stand for … in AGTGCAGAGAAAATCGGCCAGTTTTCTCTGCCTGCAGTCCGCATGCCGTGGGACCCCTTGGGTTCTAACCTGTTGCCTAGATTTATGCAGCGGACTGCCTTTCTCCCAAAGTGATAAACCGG…AGGTTGGTTTCACT; site = the 11-nt donor
ASSAY METRIC: recombinant UMI read abundance (log10)

* TCGCAAACATGGACCGGTTTTCCCGGTAATCCGTATTTGCC (site TCGCAAACTGG) | 0
* AGCCTTTCATGGACCGGTTTTCCCGGTAATCCGTATTTGAG (site AGCCTTTCTAT) | 0
* TCCATCGCATGGACCGGTTTTCCCGGTAATCCGTATTTGCG (site TCCACCGCTCG) | 0.0339
* CGATCATCATGGACCGGTTTTCCCGGTAATCCGTATTTGGT (site CGATCATCTAA) | 0.00543
* GTAAGGCCATGGACCGGTTTTCCCGGTAATCCGTATTTGAC (site ATAAGGCCTGT) | 0
* GCGAAGCCATGGACCGGTTTTCCCGGTAATCCGTATTTGAG (site GCGAAGCCTCA) | 0.0311
* TAATGGGCATGGACCGGTTTTCCCGGTAATCCGTATTTGGG (site TAATGAGCTCC) | 0.0138
* GGCCACCCATGGACCGGTTTTCCCGGTAATCCGTATTTGGT (site GGCCACCCTAC) | 0.00471
* GAAGCGCCATGGACCGGTTTTCCCGGTAATCCGTATTTGTG (site GAAGCGCCTCA) | 0.139

* * *

Experiment: recombinant barcode read abundance after kanamycin selection (control-corrected) (log10(CPM+1)); higher = more efficient recombination; sequences stand for … in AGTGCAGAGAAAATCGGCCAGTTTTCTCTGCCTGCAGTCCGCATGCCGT…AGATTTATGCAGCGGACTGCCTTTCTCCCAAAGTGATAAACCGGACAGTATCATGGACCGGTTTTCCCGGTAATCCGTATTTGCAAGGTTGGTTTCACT; site = the 11-nt target
// recombinant barcode read abundance (log10) lookup, one value per entry
ASSAY METRIC: recombinant barcode read abundance (log10)

* TCATATTCTTGGGTTCTAACCTGTTGCCT (site TCAGATTCTAG) | 0.069
* GTTTGGTCTTGGGTTCTAACCTGTTGCCT (site GTTTGCTCTAG) | 0.0727
* GAGATGTCTTGGGTTCTAACCTGTTGCCT (site GGGATGTCTAG) | 0.266
* ACCGCGACTTGGGTTCTAACCTGTTGCCT (site ACCGGGACTAG) | 0.218
* TCACTTCCTTGGGTTCTAACCTGTTGCCT (site TCACCTTCTAG) | 0.121
* CACCGTCCTTGGGTTCTAACCTGTTGCGT (site CACCGTCCTAC) | 3.03
* GCTGAGACTTGGGTTCTAACCTGTTGCGT (site GCTGAGACTAC) | 2.04
* ACAGTAGCTTGGGTTCTAACCTGTTGCCG (site ACAGTAGCTCC) | 0.189
* CGGCCCACTTGGGTTCTAACCTGTTGCGG (site CGGGCCACTAC) | 0.033
* CAGAACACTTGGGTTCTAACCTGTTGCCT (site GAGAACACTAG) | 0.198
